tgt: furin, P09958
Sequence (P09958 whole entry): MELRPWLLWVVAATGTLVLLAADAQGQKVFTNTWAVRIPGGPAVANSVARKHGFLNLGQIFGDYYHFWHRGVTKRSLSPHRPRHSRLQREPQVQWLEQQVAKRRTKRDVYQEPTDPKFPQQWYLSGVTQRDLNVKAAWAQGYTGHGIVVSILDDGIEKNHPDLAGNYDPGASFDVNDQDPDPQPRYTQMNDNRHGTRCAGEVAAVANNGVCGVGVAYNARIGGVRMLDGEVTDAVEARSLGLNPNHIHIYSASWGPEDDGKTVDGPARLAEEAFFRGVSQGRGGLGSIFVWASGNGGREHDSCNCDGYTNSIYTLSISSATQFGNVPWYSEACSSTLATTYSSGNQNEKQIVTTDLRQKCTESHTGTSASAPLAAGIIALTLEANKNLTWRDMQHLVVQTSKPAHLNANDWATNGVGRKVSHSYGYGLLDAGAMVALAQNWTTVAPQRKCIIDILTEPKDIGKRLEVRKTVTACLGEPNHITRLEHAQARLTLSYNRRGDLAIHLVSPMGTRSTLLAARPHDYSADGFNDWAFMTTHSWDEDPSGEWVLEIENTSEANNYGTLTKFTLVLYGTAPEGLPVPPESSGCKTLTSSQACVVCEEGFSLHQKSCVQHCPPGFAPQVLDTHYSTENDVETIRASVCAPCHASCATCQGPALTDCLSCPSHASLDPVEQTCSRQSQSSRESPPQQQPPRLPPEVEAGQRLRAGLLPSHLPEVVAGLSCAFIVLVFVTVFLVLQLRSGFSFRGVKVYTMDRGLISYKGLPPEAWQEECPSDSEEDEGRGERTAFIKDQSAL
assay_explanation: furin cleavage Z-score vs untreated control; higher = more cleavage, active = 3.5 or more, inactive = 1 or less, 8 variable residues between constant flanks;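 note: purified furin at 1:10 enzyme:substrate in 50 mM HEPES pH 7.5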
condition_notes: 15 min
The other results are listed elsewhere or left out. How many sequences the whole screen found active is unknown.
measured_attribute: furin cleavage Z-score
Could you respond with only the numeric value?

May I ask what furin cleavage Z-score has been recorded for CAFHYVTGMTAGNASASA [HC1210] ? -0.792

May I ask what furin cleavage Z-score has been recorded for CACTPCSAHLAGNASASA [HC2480] ? 1.15

May I ask what furin cleavage Z-score has been recorded for CAEVAERKREAGNASASA [FS-1195] ? 1.03

May I ask what furin cleavage Z-score has been recorded for CAYRFVAPGEAGNASASA [HC910] ? -0.942

May I ask what furin cleavage Z-score has been recorded for CAPSRRRKREAGNASASA [FS-1385] ? 15

May I ask what furin cleavage Z-score has been recorded for CAPTRRRWREAGNASASA [FS-1386] ? 5.98

May I ask what furin cleavage Z-score has been recorded for CAPSPEFFTEAGNASASA [HC1219] ? -0.301
